assay: Waters ACQUITY UPLC BEH C18, 100 × 2.1 mm, 1.7 µm, 40 °C, 0.3 to 0.4 mL/min, estimated dead time 0.63 min; A: water + 0.1% formic acid; B: methanol + 0.1% formic acid; gradient (min/%B) 0/0.5 0.1/0.5 10/80 10.1/99.5 12/99.5; conditions: stereoisomer not certain
Class assignment keyed on LC retention time, ranges low group = under 3 min, middle group = from 3 min up to 5 min, high group = 5 min and over

{"molecule": "CCC1CN2CCc3c([nH]c4ccccc34)C2CC1C(=COC)C(=O)OC (stereo unspecified)", "group.label": "high group"}
{"molecule": "CS(=O)CCCCC#N (stereo unspecified)", "group.label": "low group"}
{"molecule": "COc1ccc2cc1Oc1ccc(cc1)CC1=NCCc3cc(OC)c(cc31)Oc1c(OC)c(OC)c([O-])c3c1C(C2)[NH+](C)CC3 (stereo unspecified)", "group.label": "middle group"}
{"molecule": "CC(C)=CCc1cc(C2CC(=O)c3c(O)cc(O)cc3O2)cc(O)c1O (stereo unspecified)", "group.label": "high group"}
{"molecule": "COc1cc(C=CC(=O)NCCCCN)ccc1O", "group.label": "low group"}
{"molecule": "CSCC1OC(n2cnc3c(N)ncnc32)C(O)C1O (stereo unspecified)", "group.label": "low group"}
{"molecule": "CC1(C)C=CC2(C)CCC3(C)C(=CCC4C5(C)CCC(O)C(C)(CO)C5CCC43C)C2C1 (stereo unspecified)", "group.label": "high group"}
{"molecule": "O=C(O)C=Cc1ccc(O)cc1", "group.label": "low group"}
{"molecule": "OCC=Cc1ccc(O)c(O)c1", "group.label": "middle group"}
{"molecule": "COc1cc2c(c(OC)c1OC)-c1c(cc(OC)c(OC)c1OC)CC(C)(O)C(C)C2 (stereo unspecified)", "group.label": "high group"}
{"molecule": "CCCCCC(=O)OC1C(OC2(CO)OC(CO)C(OC(C)=O)C2O)OC(CO)C(OC(=O)CCCC)C1OC(=O)CCCC (stereo unspecified)", "group.label": "high group"}
{"molecule": "O=c1cc(-c2ccccc2)oc2cc(O)c(O)c(O)c12", "group.label": "high group"}
{"molecule": "CS(=O)CCCCC(=NOS(=O)(=O)O)SC1OC(CO)C(O)C(O)C1O (stereo unspecified)", "group.label": "low group"}
{"molecule": "COC(=O)C1=COC(OC2OC(CO)C(O)C(O)C2O)C2C1CC(O)C2C (stereo unspecified)", "group.label": "middle group"}
{"molecule": "CCC(C)C(NCC1(O)OC(CO)C(O)C1O)C(=O)O (stereo unspecified)", "group.label": "low group"}
{"molecule": "CC(CCC1C(CO)=CC(=O)CC1(C)C)OC1OC(CO)C(O)C(O)C1O (stereo unspecified)", "group.label": "middle group"}
{"molecule": "c1ccc2c(c1)[nH]c1cnccc12", "group.label": "middle group"}
{"molecule": "COc1ccc(-c2coc3cc(OC4OC(COC(=O)CC5CCNCC5)C(O)C(O)C4O)ccc3c2=O)cc1 (stereo unspecified)", "group.label": "middle group"}

---

assay: Waters ACQUITY UPLC BEH C18, 100 × 2.1 mm, 1.7 µm, 40 °C, 0.3 to 0.4 mL/min, estimated dead time 0.63 min; A: water + 0.1% formic acid; B: methanol + 0.1% formic acid; gradient (min/%B) 0/0.5 0.1/0.5 10/80 10.1/99.5 12/99.5; conditions: stereoisomer not certain
Here the recorded LC retention time is given for each entry.

{"molecule": "CCN(CC)CCOC(=O)c1ccc(N)cc1", "units.text": "min", "LC retention time": 2.75}
{"molecule": "COc1ccc2c(c1OC)C(=O)OC2C1c2cc3c(cc2CCN1C)OCO3 (stereo not given)", "units.text": "min", "LC retention time": 4.21}
{"molecule": "COc1cc(-c2[o+]c3cc(O)cc(O)c3cc2OC2OC(CO)C(O)C(O)C2O)ccc1O (stereo not given)", "units.text": "min", "LC retention time": 3.15}
{"molecule": "COc1cc(-c2oc3cc(O)cc(O)c3c(=O)c2OC2OC(CO)C(O)C(O)C2OC2OC(C)C(O)C(O)C2O)ccc1O (stereo not given)", "units.text": "min", "LC retention time": 3.72}
{"molecule": "OCC1OC(OCC2OC(OCC3OC(OC4(CO)OC(CO)C(O)C4O)C(O)C(O)C3O)C(O)C(O)C2O)C(O)C(O)C1O (stereo not given)", "units.text": "min", "LC retention time": 1.69}
{"molecule": "O=C(O)c1cc(=O)c2ccccc2[nH]1", "units.text": "min", "LC retention time": 3.11}
{"molecule": "O=C(C=Cc1ccccc1)c1ccccc1", "units.text": "min", "LC retention time": 9.02}
{"molecule": "O=C(O)C1OC(OC2C(Oc3cc(O)c4c(=O)cc(-c5ccc(O)c(O)c5)oc4c3)OC(C(=O)O)C(O)C2O)C(O)C(O)C1O (stereo not given)", "units.text": "min", "LC retention time": 4}
{"molecule": "COc1cc(C2OCC3C(c4cc(OC)c(OC5OC(CO)C(O)C(O)C5O)c(OC)c4)OCC23)cc(OC)c1OC1OC(CO)C(O)C(O)C1O (stereo not given)", "units.text": "min", "LC retention time": 3.61}
{"molecule": "CCC12C=CCN3CCC4(C(=C(C(=O)OC)C1)Nc1ccccc14)C32 (stereo not given)", "units.text": "min", "LC retention time": 5.2}
{"molecule": "O=C(O)CCCC(=O)O", "units.text": "min", "LC retention time": 2.53}
{"molecule": "CCCCCC=CCC=CCC=CCCCCC(=O)OC(CO)COP(=O)(O)OCCN (stereo not given)", "units.text": "min", "LC retention time": 8.73}
{"molecule": "CCCCCC(O)CC(=O)CCc1ccc(O)c(OC)c1 (stereo not given)", "units.text": "min", "LC retention time": 7.45}
{"molecule": "O=C1C(O)Oc2ccccc2N1O (stereo not given)", "units.text": "min", "LC retention time": 1.83}
{"molecule": "C=CC(O)CC(=NOS(=O)(=O)O)SC1OC(CO)C(O)C(O)C1O (stereo not given)", "units.text": "min", "LC retention time": 1.77}
{"molecule": "O=C1OCC(Cc2cccc(O)c2)C1Cc1cccc(O)c1 (stereo not given)", "units.text": "min", "LC retention time": 6.18}
{"molecule": "O=C(O)C1OC(Oc2c(-c3ccc(O)cc3)oc3cc(O)cc(O)c3c2=O)C(O)C(O)C1O (stereo not given)", "units.text": "min", "LC retention time": 4.34}
{"molecule": "COc1cc(-c2cc(=O)c3c(O)c(C4OC(CO)C(O)C(O)C4OC4OC(CO)C(O)C(O)C4O)c(O)cc3o2)ccc1O (stereo not given)", "units.text": "min", "LC retention time": 3.87}
{"molecule": "C=CCc1ccc(O)c(-c2cc(CC=C)ccc2O)c1", "units.text": "min", "LC retention time": 9.21}
{"molecule": "CC(CSCC(NC(=O)CCC(NCC1(O)OCC(O)C(O)C1O)C(=O)O)C(=O)NCC(=O)O)C(=O)O (stereo not given)", "units.text": "min", "LC retention time": 2.4}

---

Here the recorded LC retention time is given for each entry.
assay: Waters ACQUITY UPLC BEH C18, 100 × 2.1 mm, 1.7 µm, 40 °C, 0.3 to 0.4 mL/min, estimated dead time 0.63 min; A: water + 0.1% formic acid; B: methanol + 0.1% formic acid; gradient (min/%B) 0/0.5 0.1/0.5 10/80 10.1/99.5 12/99.5; details: stereoisomer not certain

{"compound": "Oc1cc(O)c2cc(OC3OCC(O)C(O)C3O)c(-c3ccc(O)c(O)c3)[o+]c2c1 (centres undefined)", "LC retention time, min": 3.01}
{"compound": "COc1cc(C=CC=O)cc(OC)c1O", "LC retention time, min": 4.73}
{"compound": "CC(C)CC(NC(=O)CCC(N)C(=O)O)C(=O)O (centres undefined)", "LC retention time, min": 2.54}
{"compound": "OCC1OC(Oc2cc3c(O)cc(O)cc3[o+]c2-c2ccc(O)cc2)C(O)C(O)C1O (centres undefined)", "LC retention time, min": 3.12}

---

Here the recorded LC retention time is given for each entry.
assay: Waters ACQUITY UPLC BEH C18, 100 × 2.1 mm, 1.7 µm, 40 °C, 0.3 to 0.4 mL/min, estimated dead time 0.63 min; A: water + 0.1% formic acid; B: methanol + 0.1% formic acid; gradient (min/%B) 0/0.5 0.1/0.5 10/80 10.1/99.5 12/99.5; settings: stereoisomer not certain
readout: LC retention time (min)

{"compound": "CCOC(=O)Oc1c(OC)cc(C(=O)OC2CC3CN4CCc5c([nH]c6cc(OC)ccc56)C4CC3C(C(=O)OC)C2OC)cc1OC (configuration not stated)", "numeric.value": 6.72}
{"compound": "O=c1c(-c2ccc(O)cc2)coc2cc(O)ccc12", "numeric.value": 5.15}
{"compound": "O=c1cc(-c2ccc(O)cc2)oc2cc(O)ccc12", "numeric.value": 7.38}
{"compound": "O=C(C=Cc1ccc(O)cc1)NCCc1ccc(O)cc1", "numeric.value": 5.06}
{"compound": "CC1OC(OC2C(c3c(O)cc(O)c4c(=O)cc(-c5ccc(O)cc5)oc34)OC(CO)C(O)C2O)C(O)C(O)C1O (configuration not stated)", "numeric.value": 4.61}
{"compound": "O=C(Cc1c[nH]c2ccccc12)NC(Cc1ccccc1)C(=O)O (configuration not stated)", "numeric.value": 6.34}
{"compound": "COc1ccc(Cc2nccc3cc(OC)c(OC)cc23)cc1OC", "numeric.value": 4.49}
{"compound": "C=C1C2CC3(C1O)C1CC4C5(C)CCC(O)C4(C1N(CC)C5)C3CC2O (configuration not stated)", "numeric.value": 3.05}
{"compound": "CC(C)CC1NC(=O)C2CCCN2C1=O (configuration not stated)", "numeric.value": 4.03}
{"compound": "O=C1CC(c2ccccc2)Oc2cc(O)cc(O)c21 (configuration not stated)", "numeric.value": 7.47}
{"compound": "CC(NC(=O)Cc1c[nH]c2ccccc12)C(=O)O (configuration not stated)", "numeric.value": 4.55}
{"compound": "COc1ccc(-c2coc3cc(OC4OC(COC(=O)CC(=O)O)C(O)C(O)C4O)cc(O)c3c2=O)cc1 (configuration not stated)", "numeric.value": 6.06}

Source of measurements: the RepoRT retention time repository
